# Test system: Pseudomonas aeruginosa
# Test Method Notes: Antimicrobial activity against Pseudomonas aeruginosa PAO1 by Etest
# Assay type: functional
Reported Endpoint: MIC (µg/mL)
// units = µg/mL; emit number, no label

Some solved entries appear below for comparison.
* NC[C@H]1O[C@H](O[C@H]2[C@H](O)[C@@H](O[C@H]3O[C@H](CO)[C@@H](O)[C@H](N)[C@H]3O)[C@H](N)C[C@@H]2N)[C@H](N)C[C@@H]1O [TOBRAMYCIN] | 1.5
* C[C@H]1[C@H](NC(=O)/C(=N\OC(C)(C)C(=O)O)c2csc(N)n2)C(=O)N1S(=O)(=O)O [AZTREONAM] | 1.5
* CC(C)(O/N=C(\C(=O)N[C@@H]1C(=O)N2C(C(=O)[O-])=C(C[n+]3ccccc3)CS[C@H]12)c1csc(N)n1)C(=O)O [CEFTAZIDIME] | 2
* CCN1CCN(C(=O)N[C@@H](C(=O)N[C@@H]2C(=O)N3[C@@H]2SC(C)(C)[C@@H]3C(=O)O)c2ccccc2)C(=O)C1=O [PIPERACILLIN] | 2

Okay, now this molecule:
Exam item: MIC for O=C(O)c1cn(C2CC2)c2cc(N3CCNCC3)c(F)cc2c1=O [CIPROFLOXACIN] ?
Marked response: 0.19

* * *

# System: Pseudomonas aeruginosa
# Test Method Notes: Antimicrobial activity against Pseudomonas aeruginosa PAO1 harboring DNA oxidative repair system deltamutT::Gm mutant gene by Etest
# Assay type: functional
Reported Endpoint: MIC

Reference set, count: 3
• NC[C@H]1O[C@H](O[C@H]2[C@H](O)[C@@H](O[C@H]3O[C@H](CO)[C@@H](O)[C@H](N)[C@H]3O)[C@H](N)C[C@@H]2N)[C@H](N)C[C@@H]1O = 1.5 µg/mL
• CC(C)(O/N=C(\C(=O)N[C@@H]1C(=O)N2C(C(=O)[O-])=C(C[n+]3ccccc3)CS[C@H]12)c1csc(N)n1)C(=O)O = 2 µg/mL
• C[C@H]1[C@H](NC(=O)/C(=N\OC(C)(C)C(=O)O)c2csc(N)n2)C(=O)N1S(=O)(=O)O = 1.5 µg/mL

Switching to the query record.
Exam item: # query: MIC of entry CCN1CCN(C(=O)N[C@@H](C(=O)N[C@@H]2C(=O)N3[C@@H]2SC(C)(C)[C@@H]3C(=O)O)c2ccccc2)C(=O)C1=O
Marked response: 2 µg/mL

* * *

Below, each of the compounds is paired with its reported MIC value.
# Test system: Pseudomonas aeruginosa
# Test Method Notes: Antimicrobial activity against Pseudomonas aeruginosa PAO1 selected in presence of ciprofloxacin by Etest
# Assay type: functional
Give a bare numeral; the unit µg/mL is implied.

Consider the following illustrative entries.
• CN(C)[C@@H]1C(O)=C(C(N)=O)C(=O)[C@@]2(O)C(O)=C3C(=O)c4c(O)cccc4[C@@](C)(O)[C@H]3C[C@@H]12 [TETRACYCLINE] = 256
• CC(C)(O/N=C(\C(=O)N[C@@H]1C(=O)N2C(C(=O)[O-])=C(C[n+]3ccccc3)CS[C@H]12)c1csc(N)n1)C(=O)O [CEFTAZIDIME] = 0.44
• O=C(N[C@H](CO)[C@H](O)c1ccc([N+](=O)[O-])cc1)C(Cl)Cl [CHLORAMPHENICOL] = 256

Exam item: Form field: MIC recorded for O=C(O)c1cn(C2CC2)c2cc(N3CCNCC3)c(F)cc2c1=O [CIPROFLOXACIN] with Pseudomonas aeruginosa (enter value)
Marked response: 0.75

Exam item: // map NC[C@H]1O[C@H](O[C@H]2[C@H](O)[C@@H](O[C@H]3O[C@H](CO)[C@@H](O)[C@H](N)[C@H]3O)[C@H](N)C[C@@H]2N)[C@H](N)C[C@@H]1O [TOBRAMYCIN] to recorded MIC (system: Pseudomonas aeruginosa)
Marked response: 1.06

* * *

# Tested on: Pseudomonas aeruginosa
# Test Method Notes: Antimicrobial activity against Pseudomonas aeruginosa PAO1 harboring DNA oxidative repair system mutT mutant gene selected in presence of tobramycin by Etest
# Assay type: functional
Rule: MIC below 0.9 µg/mL gives YES. Equal to or above 0.9 µg/mL gives NO.

Would you please look over these solved cases?
- O=C(O)c1cn(C2CC2)c2cc(N3CCNCC3)c(F)cc2c1=O: YES
- O=C(N[C@H](CO)[C@H](O)c1ccc([N+](=O)[O-])cc1)C(Cl)Cl: NO
- CC(C)(O/N=C(\C(=O)N[C@@H]1C(=O)N2C(C(=O)[O-])=C(C[n+]3ccccc3)CS[C@H]12)c1csc(N)n1)C(=O)O: YES

Exam item: Is MIC of CN(C)[C@@H]1C(O)=C(C(N)=O)C(=O)[C@@]2(O)C(O)=C3C(=O)c4c(O)cccc4[C@@](C)(O)[C@H]3C[C@@H]12 strictly below 0.9 µg/mL?
Marked response: NO

Each recorded value in this set is attributed to ChEMBL document CHEMBL1649458.
